For reference, the following IC50 results for Aurora kinase A (Homo sapiens) were taken from various sources.

The measured IC50 associated with COc1cc2c(Oc3ccc(NC(=O)Nc4ccc(C(F)(F)F)cc4)cc3F)ccnc2cc1OCCC[C@@H](N)C(=O)O reads < 2 µM

Others:
The measured IC50 associated with CCOC(=O)CCc1c(/C=C2\C(=O)Nc3ccc(NS(=O)(=O)c4ccc(F)cc4)cc32)[nH]c2c1C(=O)CCC2 reads 0.27 µM

The measured IC50 associated with COc1cc2c(cc1Nc1ncc(Cl)c(Nc3cccc4c3C(=O)NC4)n1)CCN(C)C2 reads > 1 µM

The measured IC50 associated with O=C1NCc2cccc(Nc3nc(Nc4ccc(N5CCCNCC5)cc4OC(F)F)ncc3C(F)(F)F)c21 reads > 1 µM
